Hello, the source for this data is ChEMBL document CHEMBL1122418, in case you need it.

# Species: Rattus norvegicus
# assay-details: Percent inhibition of [14C]acetate incorporation into CO2, after incubation with rat liver slices at 5x10E-4 M concentration
# Format: functional
Reported inhibition at 500 µM values for a set of compounds
# unit: % | format: bare number

{"compound": "CC1CC(=O)O[C@H]2CCCC[C@@H]12 (stereo not given in full)", "measured-value": 10}
{"compound": "CC(O)(CC(=O)O)C1CCCCC1 (stereo not given)", "measured-value": 62}
{"compound": "CO[C@H]1CCCC[C@H]1C(C)(O)CC(=O)O (stereo not given in full)", "measured-value": 39}

Entry CC1(O)CC(=O)O[C@H]2CCCC[C@H]21 (stereo not given in full) — recorded inhibition at 500 µM = 10

For record CC(O)(CC(=O)O)[C@@H]1CCCC[C@@H]1O (stereo not given in full) the listed inhibition at 500 µM is 10
